Tested on: Bacillus subtilis
Experiment: Antibacterial activity against Bacillus subtilis ATCC 6633
Assay type: functional
METRIC: MIC

Exam item: GET /values?readout=MIC&item= CCCCCCNc1nc(=O)n([C@H]2C[C@H](O)[C@@H](CO)O2)cc1C
Marked response: > 200 µM

Exam item: Consider next the compound CCCCCCCCNc1ccn([C@@H]2O[C@H](CO)[C@@H](O)[C@H]2O)c(=O)n1 in the same way.
Marked response: > 200 µM

Exam item: Consider next the compound CCCCCCCCCCCCNc1ccn([C@H]2C[C@H](O)[C@@H](CO)O2)c(=O)n1 in the same way.
Marked response: 70 µM

Exam item: Consider next the compound CCCCCCCCCCNc1nc(=O)n([C@H]2C[C@H](O)[C@@H](CO)O2)cc1C in the same way.
Marked response: 50 µM

Exam item: Consider next the compound COCCOCCOCCNc1nc(=O)n([C@H]2C[C@H](O)[C@@H](CO)O2)cc1C in the same way.
Marked response: > 200 µM

Exam item: Consider next the compound O=c1nc(NCCCCc2ccccc2)ccn1[C@H]1C[C@H](O)[C@@H](CO)O1 in the same way.
Marked response: > 200 µM

Exam item: Consider next the compound NCC[C@H](O)C(=O)N[C@@H]1C[C@H](N)[C@@H](O[C@H]2O[C@H](CN)[C@@H](O)[C@H](O)[C@H]2O)[C@H](O)[C@H]1O[C@H]1O[C@H](CO)[C@@H](O)[C@H](N)[C@H]1O in the same way.
Marked response: 7 µM

Exam item: Consider next the compound CCCCCCCCCCCCCCNc1ccn([C@H]2C[C@H](O)[C@@H](CO)O2)c(=O)n1 in the same way.
Marked response: > 200 µM
